Where do the numbers come from? From the supplement of paper PMC10338343.

Tested on: MIWI (PIWIL1) piRISC loaded with L1MC piRNA (30 nt);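 also: 1 nM active piRISC with 0.1 nM target library at 33 °C single turnover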
Test protocol: pre-steady-state target cleavage rate (min^-1); MIWI and MILI are mouse PIWI proteins and EfPiwi is from a freshwater sponge; tags in brackets are library labels; higher = faster piRNA-guided slicing of the target;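 also: 1 nM active piRISC with 0.1 nM target library at 33 °C single turnover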
Measurement setup: guide: L1MC piRNA 5'p-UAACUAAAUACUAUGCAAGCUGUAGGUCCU; auxiliary factor: 500 nM mouse GTSF1
The full ranking holds about 8,200 sequences; the median of “pre-steady-state target cleavage rate” is about 0.024, and the highest 2% start at about 1.3. The list comes from a sample in which the highest values are over-represented; it also holds close analogues and randomly drawn sequences.
Assign y whenever pre-steady-state target cleavage rate does not fall below 1; assign n whenever it does.

- Seq string: "ACGACCUACAGCUUGCAUAGUAUUUAGAUA"
  Assigned category: "n"
- Seq string: "UGGAGCUACAGCUUGGAUAGUAUUUAGUUA"
  Assigned category: "y"
- Seq string: "UCCUGGAUGUGCUUGCAUAGUAAUUAGUUA"
  Assigned category: "n"
- Seq string: "UCCUGCUACAGCUUGCAUUGUAUUAAGUUA"
  Assigned category: "n"
- Seq string: "UGGACCUACAGGAUGCAUAGUAUUUACAAA"
  Assigned category: "n"
- Seq string: "UCCUGGAUGUCCUUGCAUAGUAUUUAGUCA"
  Assigned category: "n"

Task item: Determine whether measured pre-steady-state target cleavage rate meets or exceeds 1 for UCGACCUACAGCUUGGUUAGUAUUUUCAAA
Reply: n

Task item: Determine whether measured pre-steady-state target cleavage rate meets or exceeds 1 for AGCAGCUACAGCUUGCAUAGUAUUUAGUUA
Reply: y

Task item: Determine whether measured pre-steady-state target cleavage rate meets or exceeds 1 for UCCUGCAACAGCUUCCAUAGUAUUUAGUUA
Reply: n
